# tested.on: UniProtKB P34976
# Sequence (P34976 whole entry): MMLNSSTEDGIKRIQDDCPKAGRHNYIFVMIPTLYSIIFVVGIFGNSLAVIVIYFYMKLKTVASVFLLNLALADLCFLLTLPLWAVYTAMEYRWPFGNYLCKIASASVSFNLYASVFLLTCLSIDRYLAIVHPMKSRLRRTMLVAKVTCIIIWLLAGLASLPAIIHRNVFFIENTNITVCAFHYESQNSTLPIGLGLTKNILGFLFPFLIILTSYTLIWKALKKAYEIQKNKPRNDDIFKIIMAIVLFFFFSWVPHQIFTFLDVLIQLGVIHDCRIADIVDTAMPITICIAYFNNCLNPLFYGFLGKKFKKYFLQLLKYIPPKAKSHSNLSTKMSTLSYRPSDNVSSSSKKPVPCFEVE
# assay.text: In vitro antagonist activity against angiotensin II receptor type 1 in rabbit aorta using [125I]-Sar, Ile AII.
measurement.name: IC50 (nM)

P: CCc1nc2c(C)cc(C)nc2n1Cc1ccc2c(ccn2C(=O)c2cc(Cl)c(Cl)cc2C(=O)O)c1
Q: CCc1nc2c(C)cc(C)nc2n1Cc1ccc2c(ccn2C(=O)c2ccccc2NC(=O)O)c1
R: CCc1nc2c(C)cc(C)nc2n1Cc1ccc2c(ccn2Cc2cccc([N+](=O)[O-])c2C(=O)O)c1
**Query** I'd appreciate it if you sorted the entries above by their IC50, lowest to highest. Sort and list the labels as requested.
**Result** P, Q, R
